Values compiled from patent US20220290149.

testedSystem: D-dimer (TGpr1; fibrin clot degradation product DD) (UniProt P02671;P02675;P02679-2 P02671:124-225,P02675:164-491,P02679-2:89-437)
experimentalProtocol: ELONA
assayConditions: chain copies: 2
reportedMetric: Kd (nM)
The figure you give is taken to be in nM; do not add the unit.

In plain terms, ACAGTGTGGGCGGGCGGGTGGTTTGGAGCTGGTAGCGGTA (ssDNA) [AP10-01] has a documented Kd of 54
